Exercise: for every item that follows, state its recorded self-splicing fitness (ln).
assay-protocol: self-splicing fitness, log relative to wild type (ln ratio); higher = more splicing; Tetrahymena group I intron in knt gene, E. coli kanamycin selection, DiMSum; sequences stand for … in CUCUCU…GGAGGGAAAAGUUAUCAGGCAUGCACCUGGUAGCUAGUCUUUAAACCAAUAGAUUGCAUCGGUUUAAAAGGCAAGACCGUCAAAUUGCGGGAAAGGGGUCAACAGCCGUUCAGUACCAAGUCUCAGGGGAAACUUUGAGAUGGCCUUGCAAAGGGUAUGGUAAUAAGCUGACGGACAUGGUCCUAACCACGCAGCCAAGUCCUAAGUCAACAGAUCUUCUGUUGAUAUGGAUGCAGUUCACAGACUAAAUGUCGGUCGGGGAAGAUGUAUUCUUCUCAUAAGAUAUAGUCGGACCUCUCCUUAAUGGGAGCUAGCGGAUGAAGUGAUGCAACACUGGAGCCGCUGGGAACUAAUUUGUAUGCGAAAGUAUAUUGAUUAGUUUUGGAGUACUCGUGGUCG;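 further: selection with 25 µg/mL kanamycin versus none on LB agar overnight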
study-conditions: 30 °C
Write the number on its own, no unit after it.

Looking for the measured self-splicing fitness (ln) of "CCUUAGCAAUAUUACGCUGU" , can you help?
-3.42

Looking for the measured self-splicing fitness (ln) of "GCAUAGCAAUAUUACGUAUG" , can you help?
-2.85

Looking for the measured self-splicing fitness (ln) of "UCCCAGCAAUAUUACGGAUG" , can you help?
-3.49

Looking for the measured self-splicing fitness (ln) of "AGACAGCAAUAUUACGGUAA" , can you help?
-2.04

Looking for the measured self-splicing fitness (ln) of "CGAGAGCAAUAUUACGGUGG" , can you help?
-1.72

Looking for the measured self-splicing fitness (ln) of "CGCUAGCAAUAUUACGUGUA" , can you help?
-3.54

Looking for the measured self-splicing fitness (ln) of "CCUGAGCAAUAUUACGAGGG" , can you help?
-3.48

Looking for the measured self-splicing fitness (ln) of "AUCAAGCAAUAUUACGGGCU" , can you help?
-1.86

Looking for the measured self-splicing fitness (ln) of "AUUGAGCAAUAUUACGGCCG" , can you help?
-3.13

====

Exercise: for every item that follows, state its recorded self-splicing fitness (ln).
assay-protocol: self-splicing fitness, log relative to wild type (ln ratio); higher = more splicing; Tetrahymena group I intron in knt gene, E. coli kanamycin selection, DiMSum; sequences stand for … in CUCUCU…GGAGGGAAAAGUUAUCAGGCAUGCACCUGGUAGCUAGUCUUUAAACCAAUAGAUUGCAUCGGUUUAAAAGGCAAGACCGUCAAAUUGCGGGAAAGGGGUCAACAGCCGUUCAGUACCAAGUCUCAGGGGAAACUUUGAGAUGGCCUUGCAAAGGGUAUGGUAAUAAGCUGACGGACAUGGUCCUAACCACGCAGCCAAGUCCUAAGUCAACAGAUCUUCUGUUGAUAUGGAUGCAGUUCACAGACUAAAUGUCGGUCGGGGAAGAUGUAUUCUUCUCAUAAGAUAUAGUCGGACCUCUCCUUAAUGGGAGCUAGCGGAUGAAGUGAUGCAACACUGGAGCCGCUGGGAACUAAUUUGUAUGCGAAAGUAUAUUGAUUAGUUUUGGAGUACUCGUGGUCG
study-conditions: 30 °C
Write the number on its own, no unit after it.

Looking for the measured self-splicing fitness (ln) of "GACAAGCAAUAUUACGUUGG" , can you help?
-3.26

Looking for the measured self-splicing fitness (ln) of "CUGGAGCAAUAUUACGUGAG" , can you help?
-0.772

Looking for the measured self-splicing fitness (ln) of "GUUUAGCAAUAUUACGGGAG" , can you help?
-1.44

Looking for the measured self-splicing fitness (ln) of "GCAGAGCAAUAUUACGUAAG" , can you help?
-1.79

Looking for the measured self-splicing fitness (ln) of "CCUCAGCAAUAUUACGCUGG" , can you help?
-2.55

Looking for the measured self-splicing fitness (ln) of "UAUGAGCAAUAUUACGACAA" , can you help?
-2.78

Looking for the measured self-splicing fitness (ln) of "GCGUAGCAAUAUUACGGGCG" , can you help?
-2.97

Looking for the measured self-splicing fitness (ln) of "GGGAAGCAAUAUUACGGGUC" , can you help?
-2.67

Looking for the measured self-splicing fitness (ln) of "AGACAGCAAUAUUACGGGGG" , can you help?
-3.63

Looking for the measured self-splicing fitness (ln) of "CAUUAGCAAUAUUACGGAUC" , can you help?
-1.46

Looking for the measured self-splicing fitness (ln) of "CCACAGCAAUAUUACGUGCG" , can you help?
-2.79

Looking for the measured self-splicing fitness (ln) of "UCCUAGCAAUAUUACGUAAU" , can you help?
-2.99

Looking for the measured self-splicing fitness (ln) of "UUCCAGCAAUAUUACGAGCA" , can you help?
-1.08

Looking for the measured self-splicing fitness (ln) of "GUCCAGCAAUAUUACGAGCC" , can you help?
-1.18

====

assay-protocol: self-splicing fitness, log relative to wild type (ln ratio); higher = more splicing; Tetrahymena group I intron in knt gene, E. coli kanamycin selection, DiMSum; sequences stand for … in CUCUCU…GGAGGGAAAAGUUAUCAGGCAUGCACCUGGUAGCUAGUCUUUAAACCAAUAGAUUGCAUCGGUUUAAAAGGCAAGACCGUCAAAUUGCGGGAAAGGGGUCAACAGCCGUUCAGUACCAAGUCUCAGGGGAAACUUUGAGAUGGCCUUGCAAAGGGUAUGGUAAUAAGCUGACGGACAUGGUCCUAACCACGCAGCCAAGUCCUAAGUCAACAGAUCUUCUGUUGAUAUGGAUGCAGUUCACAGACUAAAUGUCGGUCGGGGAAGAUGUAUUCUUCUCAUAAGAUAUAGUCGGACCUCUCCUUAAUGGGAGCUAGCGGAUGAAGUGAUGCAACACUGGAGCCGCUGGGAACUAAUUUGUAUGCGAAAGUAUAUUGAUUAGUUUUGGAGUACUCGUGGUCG
study-conditions: 37 °C
assay-endpoint: self-splicing fitness (ln)
Write the number on its own, no unit after it.

Looking for the measured self-splicing fitness (ln) of "AACCAGCAAUAUUACGGUAU" , can you help?
-0.457

Looking for the measured self-splicing fitness (ln) of "CCGCAGCAAUAUUACGGCAG" , can you help?
0.0999

Looking for the measured self-splicing fitness (ln) of "GUGUAGCAAUAUUACGAUCG" , can you help?
0.634

Looking for the measured self-splicing fitness (ln) of "ACAUAGCAAUAUUACGAAAG" , can you help?
-2.06

Looking for the measured self-splicing fitness (ln) of "UACAAGCAAUAUUACGGCGG" , can you help?
0.218

Looking for the measured self-splicing fitness (ln) of "GACGAGCAAUAUUACGCAGA" , can you help?
-3.45

Looking for the measured self-splicing fitness (ln) of "UAGUAGCAAUAUUACGGUAG" , can you help?
-1.73

Looking for the measured self-splicing fitness (ln) of "GAGGAGCAAUAUUACGACAA" , can you help?
-1.1

Looking for the measured self-splicing fitness (ln) of "GCGAAGCAAUAUUACGGAGG" , can you help?
-0.467

Looking for the measured self-splicing fitness (ln) of "GGAAAGCAAUAUUACGUCUG" , can you help?
0.2

Looking for the measured self-splicing fitness (ln) of "CAUGAGCAAUAUUACGCUCU" , can you help?
-2.82

Looking for the measured self-splicing fitness (ln) of "GGUUAGCAAUAUUACGUGGU" , can you help?
-0.78

Looking for the measured self-splicing fitness (ln) of "ACUAAGCAAUAUUACGUUGA" , can you help?
-1.92

Looking for the measured self-splicing fitness (ln) of "UAACAGCAAUAUUACGGAUG" , can you help?
-0.304

Looking for the measured self-splicing fitness (ln) of "CCGAAGCAAUAUUACGCGAC" , can you help?
-1.48

Looking for the measured self-splicing fitness (ln) of "UGGUAGCAAUAUUACGGUUG" , can you help?
-0.285

Looking for the measured self-splicing fitness (ln) of "CGUAAGCAAUAUUACGCUUG" , can you help?
-0.367

Looking for the measured self-splicing fitness (ln) of "GACCAGCAAUAUUACGACAA" , can you help?
-0.621

Looking for the measured self-splicing fitness (ln) of "UCACAGCAAUAUUACGUCUU" , can you help?
-2.4

Looking for the measured self-splicing fitness (ln) of "AGCGAGCAAUAUUACGCACU" , can you help?
-1.37

Looking for the measured self-splicing fitness (ln) of "AGACAGCAAUAUUACGCAUG" , can you help?
-1.23

Looking for the measured self-splicing fitness (ln) of "UGGUAGCAAUAUUACGACAA" , can you help?
-0.278

Looking for the measured self-splicing fitness (ln) of "CCUCAGCAAUAUUACGGGGU" , can you help?
-3.49

Looking for the measured self-splicing fitness (ln) of "ACCCAGCAAUAUUACGAAUG" , can you help?
-1.2

Looking for the measured self-splicing fitness (ln) of "GCAUAGCAAUAUUACGGCGU" , can you help?
0.0454

Looking for the measured self-splicing fitness (ln) of "AUCCAGCAAUAUUACGCCCA" , can you help?
-0.212

Looking for the measured self-splicing fitness (ln) of "UGACAGCAAUAUUACGACAG" , can you help?
0.0335

Looking for the measured self-splicing fitness (ln) of "CGAUAGCAAUAUUACGAUUG" , can you help?
-1.2

Looking for the measured self-splicing fitness (ln) of "CAGGAGCAAUAUUACGAGAU" , can you help?
-3.8

Looking for the measured self-splicing fitness (ln) of "CACUAGCAAUAUUACGGGAC" , can you help?
-1.7

Looking for the measured self-splicing fitness (ln) of "AACUAGCAAUAUUACGAGCA" , can you help?
-0.209

Looking for the measured self-splicing fitness (ln) of "UGCAAGCAAUAUUACGUAAU" , can you help?
-1.86

Looking for the measured self-splicing fitness (ln) of "GCGAAGCAAUAUUACGAGUC" , can you help?
-2.33

Looking for the measured self-splicing fitness (ln) of "UGCCAGCAAUAUUACGAGAG" , can you help?
-2.56

Looking for the measured self-splicing fitness (ln) of "GUUUAGCAAUAUUACGACGG" , can you help?
-3.5

Looking for the measured self-splicing fitness (ln) of "ACGAAGCAAUAUUACGAUUC" , can you help?
-2.8

Looking for the measured self-splicing fitness (ln) of "CCUUAGCAAUAUUACGGUGU" , can you help?
-2.81

Looking for the measured self-splicing fitness (ln) of "CACCAGCAAUAUUACGAAGA" , can you help?
-1.81

Looking for the measured self-splicing fitness (ln) of "UCGUAGCAAUAUUACGACGU" , can you help?
-1.58

Looking for the measured self-splicing fitness (ln) of "GGUAAGCAAUAUUACGCGUC" , can you help?
0.649

Looking for the measured self-splicing fitness (ln) of "CAUAAGCAAUAUUACGGGCA" , can you help?
-1.8

Looking for the measured self-splicing fitness (ln) of "CAUAAGCAAUAUUACGUAAU" , can you help?
-2.16

Looking for the measured self-splicing fitness (ln) of "UGAAAGCAAUAUUACGAACA" , can you help?
0.349

Looking for the measured self-splicing fitness (ln) of "CCAUAGCAAUAUUACGGUUU" , can you help?
-2.79

Looking for the measured self-splicing fitness (ln) of "CAAUAGCAAUAUUACGGCUA" , can you help?
-2.1

Looking for the measured self-splicing fitness (ln) of "AUAUAGCAAUAUUACGUGCC" , can you help?
-1.01

Looking for the measured self-splicing fitness (ln) of "CAAUAGCAAUAUUACGGUGA" , can you help?
-2.09

Looking for the measured self-splicing fitness (ln) of "CACGAGCAAUAUUACGUUGG" , can you help?
-1.79

Looking for the measured self-splicing fitness (ln) of "CGCUAGCAAUAUUACGUUGG" , can you help?
-2.24

Looking for the measured self-splicing fitness (ln) of "AGCAAGCAAUAUUACGCCCG" , can you help?
-0.0697

Looking for the measured self-splicing fitness (ln) of "GCUAAGCAAUAUUACGUCGU" , can you help?
-1.3

Looking for the measured self-splicing fitness (ln) of "CACCAGCAAUAUUACGUUUC" , can you help?
-2.58

Looking for the measured self-splicing fitness (ln) of "AGUAAGCAAUAUUACGACGC" , can you help?
0.541

Looking for the measured self-splicing fitness (ln) of "AUUGAGCAAUAUUACGUGAG" , can you help?
-1.97

Looking for the measured self-splicing fitness (ln) of "UGUAAGCAAUAUUACGGGUG" , can you help?
-0.00955

Looking for the measured self-splicing fitness (ln) of "UUUAAGCAAUAUUACGUAAU" , can you help?
-1.74

Looking for the measured self-splicing fitness (ln) of "GGCCAGCAAUAUUACGUCUU" , can you help?
-0.523

Looking for the measured self-splicing fitness (ln) of "CGAUAGCAAUAUUACGGGGU" , can you help?
-3.11
